test system: SK-OV-3; assay: NCI tumour cell line growth inhibition, 48 h
Activity calls are given as the source filed them. No stated cut-off is given here; in the data, active = GI50 up to about 1.1 µM and inactive = higher.
Form entry, call: pick from active, inactive

QUERY: Short answer needed: outcome of this test for CC(=O)OCc1cc(OC(C)=O)c2cc3c(OC(C)=O)cccc3c(OC(C)=O)c2c1 ?
RESULT: inactive

QUERY: Short answer needed: outcome of this test for CCOC(=O)/C=C(/C(=O)OCC)n1c(=O)c(C)cn(C2CC(N=[N+]=[N-])C(CO)O2)c1=O (stereo not given) ?
RESULT: inactive

QUERY: Short answer needed: outcome of this test for CC1(CO)OC1COCc1ccccc1 (stereo not given) ?
RESULT: inactive

QUERY: Short answer needed: outcome of this test for CCOC(=O)Nc1ccc(C)c(NC(=O)OCC)c1 ?
RESULT: inactive

QUERY: Short answer needed: outcome of this test for O=[N+]([O-])c1nccn1COCCBr ?
RESULT: inactive

QUERY: Short answer needed: outcome of this test for O=C(c1ccncc1)C1C(=O)c2ccccc2C1C1(O)c2ccccc2CC1C(O)c1ccncc1 (stereo not given) ?
RESULT: inactive

QUERY: Short answer needed: outcome of this test for CCOC(=O)CNC1C(NC(C)=O)C(OC)OC2COC(c3ccccc3)OC21 (stereo not given) ?
RESULT: inactive

QUERY: Short answer needed: outcome of this test for c1ccc(COC2(OCc3ccccc3)CC3OC2C2NN=NC32)cc1 (stereo not given) ?
RESULT: inactive

QUERY: Short answer needed: outcome of this test for CC1(C)CC2=NC(SSC3=C(C#N)C(c4ccc(Br)cc4)C4=C(O)CC(C)(C)CC4=N3)=C(C#N)C(c3ccc(Br)cc3)C2=C(O)C1 (stereo not given) ?
RESULT: inactive

QUERY: Short answer needed: outcome of this test for Cc1cnc(NCCCN(C)C)c2c1[nH]c1ccc3cc(O)ccc3c12 ?
RESULT: active
